# SUBJECT OF TEST: Beta-1 adrenergic receptor (Mus musculus)
# Sequence (P34971 whole entry): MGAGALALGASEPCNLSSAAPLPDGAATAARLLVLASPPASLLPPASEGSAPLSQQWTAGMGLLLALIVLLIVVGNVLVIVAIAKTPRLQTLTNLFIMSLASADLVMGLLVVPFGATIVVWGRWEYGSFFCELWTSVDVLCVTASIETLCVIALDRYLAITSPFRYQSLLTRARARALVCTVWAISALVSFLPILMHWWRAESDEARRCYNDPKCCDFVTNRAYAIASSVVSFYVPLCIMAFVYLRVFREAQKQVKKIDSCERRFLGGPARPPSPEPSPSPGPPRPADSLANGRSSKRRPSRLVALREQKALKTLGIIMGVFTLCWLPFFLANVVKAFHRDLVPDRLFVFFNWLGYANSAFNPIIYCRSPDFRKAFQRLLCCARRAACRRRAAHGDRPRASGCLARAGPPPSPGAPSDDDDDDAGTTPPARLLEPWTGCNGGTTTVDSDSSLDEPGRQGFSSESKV
MEASUREMENT KIND: Ki

Q) Could you share which Ki value was measured for COc1ccccc1OCCNCCCc1ccc(O)c(O)c1 ?
A) > 10 µM

***
Q) Looking for the measured Ki of COc1ccccc1OCCNCCCOc1ccc(O)c(O)c1 , can you help?
A) > 10 µM

Q) Now try CC(C)NCCCOc1ccc(O)c(O)c1 .
A) > 10 µM
